assay: MRT (infinity) in Sprague-Dawley rat at 10 mg/kg, iv measured after 24 hrs by LC-MS/MS analysis; type: ADME, organism-based; conditions: in vivo
reported property: MRT inf (h)
Express it in h; write the number only.

Given the compound CC(C)(C)OC(=O)N1CCC2(C(=O)Nc3ccccc32)C1c1cccc(Nc2ccc(CO)c(S(C)(=O)=O)c2)c1 (racemic) , what is its reported MRT inf?
3.48

###

Test system Retinoic acid receptor RXR-alpha/oxysterols receptor LXR-alpha (Homo sapiens), EC50 listed for each of the molecules.
Report the figure in nM without appending any unit label.

>>> data_value("O=C(O)Cc1cccc(OCCCN(Cc2cccc(C(F)(F)F)c2Cl)CC(c2ccccc2)c2ccccc2)c1")
0.401

Switching to the query record.
Entry "Fc1ccc(-c2c3cccc(C(F)(F)F)c3nn2Cc2ccc(F)cc2Cl)cc1" : reported EC50 = ?
0.431

###

experiment: Tmax in Sprague-Dawley rat at 10 mg/kg, iv measured after 24 hrs by LC-MS/MS analysis; format: ADME, organism-based; settings: in vivo
reported property: Tmax (min)
Report the figure in min without appending any unit label.

Fill in the blank: the reported Tmax of CC(C)(C)OC(=O)N1CCC2(C(=O)Nc3ccccc32)C1c1cccc(Nc2ccc(CO)c(S(C)(=O)=O)c2)c1 (racemic) is ____.
13.2

###

molecular target: Retinoic acid receptor RXR-alpha/oxysterols receptor LXR-beta (Homo sapiens, UniProt P55055)
Sequence (P19793 whole entry): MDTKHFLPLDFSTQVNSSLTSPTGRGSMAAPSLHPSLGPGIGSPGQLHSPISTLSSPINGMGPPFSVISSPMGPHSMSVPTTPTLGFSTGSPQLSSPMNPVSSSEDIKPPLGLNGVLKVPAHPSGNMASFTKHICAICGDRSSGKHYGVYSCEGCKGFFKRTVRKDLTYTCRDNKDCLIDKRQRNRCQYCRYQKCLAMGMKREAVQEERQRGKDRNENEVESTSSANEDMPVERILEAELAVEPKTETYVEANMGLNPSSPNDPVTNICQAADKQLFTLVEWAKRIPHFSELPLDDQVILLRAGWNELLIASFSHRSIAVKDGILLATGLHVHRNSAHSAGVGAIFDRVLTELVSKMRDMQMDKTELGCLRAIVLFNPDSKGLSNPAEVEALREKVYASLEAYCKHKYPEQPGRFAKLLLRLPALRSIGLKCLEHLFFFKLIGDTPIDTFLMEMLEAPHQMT
Sequence (P55055 whole entry): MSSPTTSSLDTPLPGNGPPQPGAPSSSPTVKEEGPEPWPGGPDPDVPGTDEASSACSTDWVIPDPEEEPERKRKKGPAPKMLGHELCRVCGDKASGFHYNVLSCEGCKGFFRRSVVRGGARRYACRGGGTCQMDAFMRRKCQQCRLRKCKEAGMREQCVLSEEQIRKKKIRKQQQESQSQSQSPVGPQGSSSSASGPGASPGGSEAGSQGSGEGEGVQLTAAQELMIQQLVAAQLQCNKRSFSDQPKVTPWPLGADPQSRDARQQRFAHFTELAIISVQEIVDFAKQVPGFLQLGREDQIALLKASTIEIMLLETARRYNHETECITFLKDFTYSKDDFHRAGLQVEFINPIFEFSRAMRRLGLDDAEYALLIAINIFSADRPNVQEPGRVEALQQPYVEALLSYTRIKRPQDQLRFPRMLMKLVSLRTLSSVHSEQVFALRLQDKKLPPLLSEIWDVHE
Entries and their measured pEC50 follow.
Field pEC50 (float): negative decimal logarithm of the concentration in molar.

>>> data_value("O=C(O)Cc1cccc(OCCCN(Cc2cccc(C(F)(F)F)c2Cl)CC(c2ccccc2)c2ccccc2)c1")
9.64

Here's the next entry for you.
State the recorded pEC50 for this entry: "Fc1ccc(-c2c3cccc(C(F)(F)F)c3nn2Cc2ccc(F)cc2Cl)cc1"
9.67
